target: POL/UL8 interaction (Human herpesvirus 1); construct: made in house; host or cells: Spodoptera frugiperda (Sf) cells infected with recombinant baculoviruses AcUL30 and AcUL8; test: biochemical; type: binding, HSV-1
Sequence (P04293 whole entry): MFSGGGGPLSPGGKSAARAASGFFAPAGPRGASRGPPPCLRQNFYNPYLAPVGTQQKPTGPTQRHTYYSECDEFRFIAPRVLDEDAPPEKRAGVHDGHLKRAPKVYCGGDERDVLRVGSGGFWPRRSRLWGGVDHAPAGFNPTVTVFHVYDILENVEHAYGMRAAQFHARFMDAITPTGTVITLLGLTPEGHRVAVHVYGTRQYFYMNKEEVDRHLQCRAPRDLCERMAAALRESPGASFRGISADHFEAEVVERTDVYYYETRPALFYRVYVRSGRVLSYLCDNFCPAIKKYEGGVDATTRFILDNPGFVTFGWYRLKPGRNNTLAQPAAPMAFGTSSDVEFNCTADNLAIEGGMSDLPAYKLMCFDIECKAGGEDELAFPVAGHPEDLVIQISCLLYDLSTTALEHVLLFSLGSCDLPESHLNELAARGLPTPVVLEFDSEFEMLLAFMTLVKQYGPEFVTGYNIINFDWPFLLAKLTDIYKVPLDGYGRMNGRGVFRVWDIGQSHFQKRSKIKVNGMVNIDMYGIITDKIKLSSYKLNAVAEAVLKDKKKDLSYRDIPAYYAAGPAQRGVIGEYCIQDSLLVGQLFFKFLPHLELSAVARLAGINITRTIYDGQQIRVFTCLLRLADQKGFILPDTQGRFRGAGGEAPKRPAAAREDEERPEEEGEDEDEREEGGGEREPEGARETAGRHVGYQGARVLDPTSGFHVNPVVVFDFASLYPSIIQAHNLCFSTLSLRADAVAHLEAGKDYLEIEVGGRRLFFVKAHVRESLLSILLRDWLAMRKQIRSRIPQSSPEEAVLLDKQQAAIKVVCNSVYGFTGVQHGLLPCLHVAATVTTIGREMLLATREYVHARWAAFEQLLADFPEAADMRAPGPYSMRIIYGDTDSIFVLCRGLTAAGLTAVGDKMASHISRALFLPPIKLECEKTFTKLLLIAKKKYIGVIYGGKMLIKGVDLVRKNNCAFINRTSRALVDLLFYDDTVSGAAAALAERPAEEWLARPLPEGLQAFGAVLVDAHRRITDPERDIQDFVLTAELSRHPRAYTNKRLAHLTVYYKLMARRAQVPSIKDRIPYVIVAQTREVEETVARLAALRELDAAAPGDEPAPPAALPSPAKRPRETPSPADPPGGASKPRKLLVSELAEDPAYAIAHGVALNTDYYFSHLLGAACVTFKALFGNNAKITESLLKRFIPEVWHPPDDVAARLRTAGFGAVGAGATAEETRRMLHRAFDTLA
No end group written: not given here.
Each entry below lists one item and its recorded IC50 value.
Measured Quantity: IC50

1. VLAGVWGEGGKFVYPFDDKMSFLFA [Peptide 3]    > 250 µM
2. EILREIELVFTGVLA [Peptide 8]    > 250 µM
3. IELVFTGVLAGVWGEGGKFV [Peptide 7]    2.3 µM
4. TGVLAGVWGEGGKFVYPFDDKMSFLFA [Peptide 4]    > 250 µM
5. TGVLAGVWGEGGKFV [Peptide 6]    > 250 µM
6. VFTGVLAGVWGEGGKFVYPFDDKMSFLFA [Peptide 5]    66 µM
7. IVEFLKVGFGTEGGVWLVAG [Peptide 7J, reference compound]    > 20 µM
